molecular target: rat collagen type I (Rattus norvegicus, UniProt P02454+P02466); construct: Rat collagen (acid soluble, type I, rat tail); purchased Upstate USA, Inc 08-115; host or cells: rat tail; assay: Dried collagen assay (DCA): percent binding to dried rat collagen; conditions: 5 μM peptide in PBS, pH 7.4, 2 hours at room temperature
Sequence (P02454 152-1207 limits assumed): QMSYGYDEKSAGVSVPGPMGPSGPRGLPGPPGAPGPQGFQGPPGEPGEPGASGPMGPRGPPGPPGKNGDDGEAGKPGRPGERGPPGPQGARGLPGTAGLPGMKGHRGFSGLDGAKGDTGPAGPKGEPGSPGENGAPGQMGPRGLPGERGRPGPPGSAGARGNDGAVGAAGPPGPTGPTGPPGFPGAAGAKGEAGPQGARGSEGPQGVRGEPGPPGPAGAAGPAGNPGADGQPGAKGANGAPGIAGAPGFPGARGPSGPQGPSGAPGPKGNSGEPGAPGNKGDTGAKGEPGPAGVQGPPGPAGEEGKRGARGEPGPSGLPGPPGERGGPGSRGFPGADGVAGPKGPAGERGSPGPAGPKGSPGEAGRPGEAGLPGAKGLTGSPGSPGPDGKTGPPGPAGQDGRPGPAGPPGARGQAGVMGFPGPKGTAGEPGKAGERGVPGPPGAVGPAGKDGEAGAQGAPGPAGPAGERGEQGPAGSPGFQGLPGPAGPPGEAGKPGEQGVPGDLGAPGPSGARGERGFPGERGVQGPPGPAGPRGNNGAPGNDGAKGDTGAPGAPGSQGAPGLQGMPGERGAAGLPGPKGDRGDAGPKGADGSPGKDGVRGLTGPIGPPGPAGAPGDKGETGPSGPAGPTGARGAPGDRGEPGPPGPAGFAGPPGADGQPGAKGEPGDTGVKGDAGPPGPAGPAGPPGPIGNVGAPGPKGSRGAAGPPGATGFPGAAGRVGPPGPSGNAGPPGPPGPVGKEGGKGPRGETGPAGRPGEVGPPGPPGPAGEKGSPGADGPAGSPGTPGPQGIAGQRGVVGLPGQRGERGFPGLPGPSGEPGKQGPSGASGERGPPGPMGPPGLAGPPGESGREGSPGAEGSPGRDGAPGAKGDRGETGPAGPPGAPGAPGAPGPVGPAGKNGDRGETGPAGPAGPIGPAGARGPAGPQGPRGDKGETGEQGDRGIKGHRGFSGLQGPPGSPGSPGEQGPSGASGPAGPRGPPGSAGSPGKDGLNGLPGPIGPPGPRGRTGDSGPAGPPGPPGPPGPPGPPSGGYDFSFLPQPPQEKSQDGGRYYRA
Sequence (P02466 86-1125 limits assumed): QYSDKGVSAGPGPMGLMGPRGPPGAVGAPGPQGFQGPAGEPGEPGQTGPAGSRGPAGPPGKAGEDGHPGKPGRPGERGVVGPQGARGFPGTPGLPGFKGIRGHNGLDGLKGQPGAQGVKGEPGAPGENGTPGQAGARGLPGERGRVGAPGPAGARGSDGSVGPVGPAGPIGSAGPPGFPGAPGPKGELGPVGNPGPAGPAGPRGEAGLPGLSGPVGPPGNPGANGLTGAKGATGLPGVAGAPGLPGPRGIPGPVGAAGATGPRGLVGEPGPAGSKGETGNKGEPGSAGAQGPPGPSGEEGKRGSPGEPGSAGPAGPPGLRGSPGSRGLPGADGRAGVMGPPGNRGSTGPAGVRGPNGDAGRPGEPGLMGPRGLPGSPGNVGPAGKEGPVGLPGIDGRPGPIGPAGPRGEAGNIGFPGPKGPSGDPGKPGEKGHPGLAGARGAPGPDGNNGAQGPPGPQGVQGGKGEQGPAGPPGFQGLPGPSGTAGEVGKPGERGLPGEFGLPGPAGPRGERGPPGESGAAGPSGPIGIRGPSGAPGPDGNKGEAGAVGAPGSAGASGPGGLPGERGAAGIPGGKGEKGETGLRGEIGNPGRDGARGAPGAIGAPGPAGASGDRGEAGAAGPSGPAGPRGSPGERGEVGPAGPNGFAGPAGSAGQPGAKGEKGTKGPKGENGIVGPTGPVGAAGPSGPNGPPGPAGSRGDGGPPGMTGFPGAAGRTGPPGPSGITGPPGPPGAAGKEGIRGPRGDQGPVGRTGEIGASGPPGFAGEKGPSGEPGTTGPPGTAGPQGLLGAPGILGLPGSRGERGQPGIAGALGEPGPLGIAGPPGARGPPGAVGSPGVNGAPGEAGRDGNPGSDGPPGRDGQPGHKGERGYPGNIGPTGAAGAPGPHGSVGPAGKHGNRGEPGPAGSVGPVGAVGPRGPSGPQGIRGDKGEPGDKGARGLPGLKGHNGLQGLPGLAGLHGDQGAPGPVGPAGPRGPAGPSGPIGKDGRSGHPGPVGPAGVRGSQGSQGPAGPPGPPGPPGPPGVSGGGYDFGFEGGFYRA
Bridge positions count the residues as written; N and C are the ends. Square brackets hold non-standard residues; d marks the D form. Ends that are not written are not given here.
quantity.measured: % Collagen Binding Dried Rat (%)

# substance, target, % Collagen Binding Dried Rat [%]
rows = [
    ("142 (QWTCSADEYTWHCNYE; disulfide 4-13 (inferred)) [compound 142]", "rat collagen type I (Rattus norvegicus, UniProt P02454+P02466)", 6),
]

[P] 173 (QWTCSGDEYT[dW]HCNYE; disulfide 4-13 (inferred)) [compound 173]
[Q] 137 (YHACYQAGCWAW; disulfide 4-9 (inferred)) [compound 137]
% Collagen Binding Dried Rat comparison. Which is larger, P or Q ? Pick one and reply with its label.
Q
(Q: 7%, P: 4%)

[I] 169 (QWTCSG[dD]EYTWHCNYE; disulfide 4-13 (inferred)) [compound 169]
[II] 171 (QWTCSGDE[dY]TWHCNYE; disulfide 4-13 (inferred)) [compound 171]
[III] 176 (QWTCSGDEYTWHC[dN]YE; disulfide 4-13 (inferred)) [compound 176]
// ascending sort on recorded % Collagen Binding Dried Rat Write the labels, ordered according to the request.
III, I, II
(III: 2%, I: 4%, II: 6%)

[a] 166 (QW[dT]CSGDEYTWHCNYE; disulfide 4-13 (inferred)) [compound 166]
[b] 175 (QWTCSGDEYTWH[dC]NYE; disulfide 4-13 (inferred)) [compound 175]
% Collagen Binding Dried Rat comparison. Which is larger, a or b ? Pick one and reply with its label.
a

[1] 168 (QWTC[dS]GDEYTWHCNYE; disulfide 4-13 (inferred)) [compound 168]
[2] 165 (Q[dW]TCSGDEYTWHCNYE; disulfide 4-13 (inferred)) [compound 165]
Given the two records 1 and 2 , choose the one whose % Collagen Binding Dried Rat value is lower. Pick one and reply with its label.
1

###

target: human collagen type I (Homo sapiens, UniProt P02452+P08123); construct: Acid soluble human collagen extracted from placenta; purchased Sigma C7774 (lot #083K375); host or cells: human placenta; assay: Dried collagen assay (DCA): percent binding to dried human collagen; conditions: 5 μM peptide in PBS, pH 7.4, 2 hours at room temperature
Sequence (P02452 162-1218 limits assumed): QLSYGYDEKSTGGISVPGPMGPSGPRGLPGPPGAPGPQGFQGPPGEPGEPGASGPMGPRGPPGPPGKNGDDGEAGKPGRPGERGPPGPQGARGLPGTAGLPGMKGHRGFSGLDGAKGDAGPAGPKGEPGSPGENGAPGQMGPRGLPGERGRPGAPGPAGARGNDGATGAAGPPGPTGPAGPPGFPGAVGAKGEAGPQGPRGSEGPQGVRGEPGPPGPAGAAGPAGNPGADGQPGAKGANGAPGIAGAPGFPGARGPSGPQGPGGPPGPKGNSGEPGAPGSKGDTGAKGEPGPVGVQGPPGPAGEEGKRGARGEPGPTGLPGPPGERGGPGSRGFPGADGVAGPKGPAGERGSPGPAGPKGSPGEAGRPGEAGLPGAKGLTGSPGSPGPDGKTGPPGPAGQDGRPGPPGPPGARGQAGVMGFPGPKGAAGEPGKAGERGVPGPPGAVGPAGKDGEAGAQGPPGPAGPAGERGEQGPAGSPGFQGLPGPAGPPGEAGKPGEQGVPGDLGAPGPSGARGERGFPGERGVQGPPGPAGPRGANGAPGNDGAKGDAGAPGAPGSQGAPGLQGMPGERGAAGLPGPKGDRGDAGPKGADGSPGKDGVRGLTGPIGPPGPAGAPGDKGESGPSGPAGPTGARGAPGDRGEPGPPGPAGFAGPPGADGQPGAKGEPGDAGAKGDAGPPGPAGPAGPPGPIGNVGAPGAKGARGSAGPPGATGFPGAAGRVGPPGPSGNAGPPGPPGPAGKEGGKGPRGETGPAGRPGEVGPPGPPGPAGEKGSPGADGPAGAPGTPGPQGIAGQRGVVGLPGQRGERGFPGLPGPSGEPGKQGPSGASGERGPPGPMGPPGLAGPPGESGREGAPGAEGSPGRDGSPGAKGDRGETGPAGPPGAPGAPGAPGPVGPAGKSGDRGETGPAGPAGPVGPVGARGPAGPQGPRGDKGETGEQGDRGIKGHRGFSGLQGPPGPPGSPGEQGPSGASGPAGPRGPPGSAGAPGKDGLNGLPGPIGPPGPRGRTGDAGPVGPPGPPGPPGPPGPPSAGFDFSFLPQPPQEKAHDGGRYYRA
Sequence (P08123 80-1119 limits assumed): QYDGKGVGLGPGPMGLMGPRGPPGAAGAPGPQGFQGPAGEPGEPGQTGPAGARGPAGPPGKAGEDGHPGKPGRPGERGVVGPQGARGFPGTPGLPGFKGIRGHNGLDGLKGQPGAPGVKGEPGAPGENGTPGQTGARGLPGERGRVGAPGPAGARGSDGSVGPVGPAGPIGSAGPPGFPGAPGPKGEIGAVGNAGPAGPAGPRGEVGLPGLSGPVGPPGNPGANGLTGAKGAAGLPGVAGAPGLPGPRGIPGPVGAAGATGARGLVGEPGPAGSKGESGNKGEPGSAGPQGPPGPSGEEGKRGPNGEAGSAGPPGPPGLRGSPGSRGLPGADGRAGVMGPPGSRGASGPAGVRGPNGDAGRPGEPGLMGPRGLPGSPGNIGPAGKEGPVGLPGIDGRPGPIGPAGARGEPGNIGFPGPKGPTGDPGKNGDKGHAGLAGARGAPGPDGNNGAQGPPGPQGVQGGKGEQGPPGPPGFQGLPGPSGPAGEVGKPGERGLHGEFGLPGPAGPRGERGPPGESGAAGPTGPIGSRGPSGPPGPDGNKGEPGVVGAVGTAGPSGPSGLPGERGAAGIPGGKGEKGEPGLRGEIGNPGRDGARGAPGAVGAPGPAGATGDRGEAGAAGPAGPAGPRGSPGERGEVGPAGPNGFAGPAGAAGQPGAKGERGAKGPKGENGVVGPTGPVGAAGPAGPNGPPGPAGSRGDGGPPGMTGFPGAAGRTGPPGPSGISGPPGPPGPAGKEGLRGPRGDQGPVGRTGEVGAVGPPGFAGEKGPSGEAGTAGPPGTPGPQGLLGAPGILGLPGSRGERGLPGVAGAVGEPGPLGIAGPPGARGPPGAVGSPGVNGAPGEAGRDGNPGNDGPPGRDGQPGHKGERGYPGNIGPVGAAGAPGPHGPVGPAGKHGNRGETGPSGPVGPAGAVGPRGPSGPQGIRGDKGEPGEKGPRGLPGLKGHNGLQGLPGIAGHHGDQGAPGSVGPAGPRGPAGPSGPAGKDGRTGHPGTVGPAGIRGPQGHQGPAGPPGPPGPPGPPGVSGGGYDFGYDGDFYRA
Bridge positions count the residues as written; N and C are the ends. Ends that are not written are not given here.
quantity.measured: Dried Human Collagen Binding (%)

// worked examples, Dried Human Collagen Binding included
# substance, target, endpoint.value
measured = [
    ("112 (AKACSVHDEFGCLIS; disulfide 4-12 (inferred)) [compound 112]", "human collagen type I (Homo sapiens, UniProt P02452+P08123)", 9),
    ("36 (SWSCGGDHNAWKCQYS) [compound 36]", "human collagen type I (Homo sapiens, UniProt P02452+P08123)", 7),
    ("39 (GWQCSGDASVWNCDWI) [compound 39]", "human collagen type I (Homo sapiens, UniProt P02452+P08123)", 6),
    ("38 (GWSCHGDAADWPCQWS) [compound 38]", "human collagen type I (Homo sapiens, UniProt P02452+P08123)", 6),
    ("65 (KWECVHTKGEWYCETK) [compound 65]", "human collagen type I (Homo sapiens, UniProt P02452+P08123)", 7),
]

[a] 37 (LWNCHGTDANWKCVLN) [compound 37]
[b] 2 (WGWCEWAQNNCWNY) [compound 2]
[c] 3 (PWWCHEMPSMCFGF) [compound 3]
[d] 130 (WWACQKGRHDWEKCRWL; disulfide 4-14 (inferred)) [compound 130]
[e] 113 (FSECVWVNAYQCEYF; disulfide 4-12 (inferred)) [compound 113]
Descending sort on Dried Human Collagen Binding required. Write the labels, ordered according to the request.
d, b, a, e, c

// provenance: patent US20070293656A1
